These measurements were taken from ChEMBL document CHEMBL1131222.

Each entry below lists one item and its recorded Ki value.
target: Neutrophil elastase (Homo sapiens)
protocol.text: Steady state inhibition constant for Human Leukocyte Elastase inhibition
value.type: Ki (nM)

{"cpd.smiles": "CCN(CC)c1nc2sc3c(c2c(=O)o1)CCCC3", "value.type": "Ki", "units.label": "nM", "observed.result": 16.3}
{"cpd.smiles": "CCSc1nc2sc(C)c(C)c2c(=O)o1", "value.type": "Ki", "units.label": "nM", "observed.result": 2.73}
{"cpd.smiles": "CC(C)Nc1nc2sccc2c(=O)o1", "value.type": "Ki", "units.label": "nM", "observed.result": 41.8}
{"cpd.smiles": "O=c1oc(SCc2ccccc2)nc2sc3c(c12)CCCC3", "value.type": "Ki", "units.label": "nM", "observed.result": 290}
{"cpd.smiles": "CSc1nc2sc(C)c(C)c2c(=O)o1", "value.type": "Ki", "units.label": "nM", "observed.result": 35}
{"cpd.smiles": "COC(=O)CSc1nc2sc(C)c(C)c2c(=O)o1", "value.type": "Ki", "units.label": "nM", "observed.result": 238}

---

protocol.text: Alkaline hydrolysis rate (k-OH)
Type: ADME
Each entry below lists one item and its recorded kOH- value.

{"cpd.smiles": "O=c1oc(SCc2ccccc2)nc2sc3c(c12)CCCC3", "kOH-": "0.355 M⁻¹ s⁻¹"}
{"cpd.smiles": "CSc1nc2sc(C)c(C)c2c(=O)o1", "kOH-": "1.65 M⁻¹ s⁻¹"}
{"cpd.smiles": "CCSc1nc2sc3c(c2c(=O)o1)CCCC3", "kOH-": "0.59 M⁻¹ s⁻¹"}

---

Each entry below lists one item and its recorded Ki value.
target: Neutrophil elastase (Homo sapiens, UniProt P08246)
Sequence (P08246 whole entry): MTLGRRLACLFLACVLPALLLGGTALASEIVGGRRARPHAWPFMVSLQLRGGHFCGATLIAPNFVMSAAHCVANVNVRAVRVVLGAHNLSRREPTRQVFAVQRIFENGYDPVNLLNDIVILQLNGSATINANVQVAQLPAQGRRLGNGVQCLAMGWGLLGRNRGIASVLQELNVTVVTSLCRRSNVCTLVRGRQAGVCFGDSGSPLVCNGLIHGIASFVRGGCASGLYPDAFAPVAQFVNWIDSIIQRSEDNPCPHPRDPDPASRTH
protocol.text: Negative logarithm of steady state constant Ki for enzyme-inhibitor complex Human Leukocyte Elastase inhibition

{"cpd.smiles": "CC(C)Nc1nc2sccc2c(=O)o1", "units.label": "µM", "Ki": 0.0417}
{"cpd.smiles": "CCCOc1nc2sc(C)c(C)c2c(=O)o1", "units.label": "µM", "Ki": 0.00398}
{"cpd.smiles": "CCN(CC)c1nc2sc3c(c2c(=O)o1)CCCC3", "units.label": "µM", "Ki": 0.0162}
{"cpd.smiles": "Cc1sc2nc(SCc3ccccc3)oc(=O)c2c1C", "units.label": "µM", "Ki": 0.1}
{"cpd.smiles": "Cc1sc2nc(OCC(C)C)oc(=O)c2c1C", "units.label": "µM", "Ki": 0.135}
{"cpd.smiles": "O=c1oc(SCc2ccccc2)nc2sc3c(c12)CCCC3", "units.label": "µM", "Ki": 0.288}
{"cpd.smiles": "COC(=O)CSc1nc2sc3c(c2c(=O)o1)CCCC3", "units.label": "µM", "Ki": 0.0178}
{"cpd.smiles": "CC(C)COc1nc2sc3c(c2c(=O)o1)CCCC3", "units.label": "µM", "Ki": 0.0513}
{"cpd.smiles": "CSc1nc2sc3c(c2c(=O)o1)CCCC3", "units.label": "µM", "Ki": 0.00575}
{"cpd.smiles": "CCOc1nc2scc(C(C)C)c2c(=O)o1", "units.label": "µM", "Ki": 0.00562}
{"cpd.smiles": "CC(C)Nc1nc2sc3c(c2c(=O)o1)CCCC3", "units.label": "µM", "Ki": 0.145}
{"cpd.smiles": "CSc1nc2sc(C)c(C)c2c(=O)o1", "units.label": "µM", "Ki": 0.0347}
{"cpd.smiles": "CCSc1nc2sc3c(c2c(=O)o1)CCCC3", "units.label": "µM", "Ki": 0.00575}

---

protocol.text: Alkaline hydrolysis rate (k-OH)
Format: ADME

{"cpd.smiles": "Cc1sc2nc(NC(C)C)oc(=O)c2c1C", "kOH-": "0.073 M⁻¹ s⁻¹"}
{"cpd.smiles": "Cc1sc2nc(SCc3ccccc3)oc(=O)c2c1C", "kOH-": "0.69 M⁻¹ s⁻¹"}
{"cpd.smiles": "CSc1nc2sc3c(c2c(=O)o1)CCCC3", "kOH-": "1.63 M⁻¹ s⁻¹"}
{"cpd.smiles": "CCSc1nc2sc(C)c(C)c2c(=O)o1", "kOH-": "1.27 M⁻¹ s⁻¹"}
{"cpd.smiles": "O=c1oc(N2CCOCC2)nc2sc3c(c12)CCCC3", "kOH-": "0.083 M⁻¹ s⁻¹"}
{"cpd.smiles": "Cc1sc2nc(OCC(C)C)oc(=O)c2c1C", "kOH-": "2.55 M⁻¹ s⁻¹"}
{"cpd.smiles": "CCN(CC)c1nc2sc3c(c2c(=O)o1)CCCC3", "kOH-": "0.025 M⁻¹ s⁻¹"}
{"cpd.smiles": "CC(C)Nc1nc2sccc2c(=O)o1", "kOH-": "0.332 M⁻¹ s⁻¹"}
{"cpd.smiles": "Cc1sc2nc(N(C)C3CCCCC3)oc(=O)c2c1C", "kOH-": "0.077 M⁻¹ s⁻¹"}
{"cpd.smiles": "COC(=O)CSc1nc2sc3c(c2c(=O)o1)CCCC3", "kOH-": "0.92 M⁻¹ s⁻¹"}
{"cpd.smiles": "COC(=O)CSc1nc2sc(C)c(C)c2c(=O)o1", "kOH-": "1.03 M⁻¹ s⁻¹"}
{"cpd.smiles": "CCCOc1nc2sc3c(c2c(=O)o1)CCCC3", "kOH-": "2.75 M⁻¹ s⁻¹"}
{"cpd.smiles": "CCOc1nc2sc3c(c2c(=O)o1)CCCC3", "kOH-": "2.77 M⁻¹ s⁻¹"}

---

Each entry below lists one item and its recorded Log kOH- value.
protocol.text: Alkaline hydrolysis rate (logk-OH)
Type: ADME
details: 50 mM CAPS, pH 10.5 or 11.5, 25 °C

{"cpd.smiles": "Cc1sc2nc(OCC(C)C)oc(=O)c2c1C", "Log kOH-": 0.41}
{"cpd.smiles": "O=c1oc(SCc2ccccc2)nc2sc3c(c12)CCCC3", "Log kOH-": -0.45}
{"cpd.smiles": "CSc1nc2sc3c(c2c(=O)o1)CCCC3", "Log kOH-": 0.21}
{"cpd.smiles": "COC(=O)CSc1nc2sc3c(c2c(=O)o1)CCCC3", "Log kOH-": -0.04}
{"cpd.smiles": "CCN(CC)c1nc2sc3c(c2c(=O)o1)CCCC3", "Log kOH-": -1.59}
{"cpd.smiles": "Cc1sc2nc(N(C)C3CCCCC3)oc(=O)c2c1C", "Log kOH-": -1.11}
{"cpd.smiles": "CCOc1nc2sc3c(c2c(=O)o1)CCCC3", "Log kOH-": 0.44}
{"cpd.smiles": "CCN(CC)c1nc2sc(C)c(C)c2c(=O)o1", "Log kOH-": -1.63}
{"cpd.smiles": "CCCOc1nc2sc(C)c(C)c2c(=O)o1", "Log kOH-": 0.39}
{"cpd.smiles": "Cc1sc2nc(NC(C)C)oc(=O)c2c1C", "Log kOH-": -1.14}
{"cpd.smiles": "CC(C)Nc1nc2sccc2c(=O)o1", "Log kOH-": -0.48}
{"cpd.smiles": "O=c1oc(N2CCOCC2)nc2sc3c(c12)CCCC3", "Log kOH-": -1.08}
{"cpd.smiles": "CCOc1nc2scc(C(C)C)c2c(=O)o1", "Log kOH-": 0.47}

---

Each entry below lists one item and its recorded pKi value.
target: Neutrophil elastase (Homo sapiens, UniProt P08246)
protocol.text: Negative logarithm of steady state constant Ki for enzyme-inhibitor complex Human Leukocyte Elastase inhibition
pKi: −log10 of the molar value.

{"cpd.smiles": "COC(=O)CSc1nc2sc(C)c(C)c2c(=O)o1", "target": "Neutrophil elastase (Homo sapiens, UniProt P08246)", "pKi": 6.62}
{"cpd.smiles": "Cc1sc2nc(NC(C)C)oc(=O)c2c1C", "target": "Neutrophil elastase (Homo sapiens, UniProt P08246)", "pKi": 7.12}
{"cpd.smiles": "CCOc1nc2sc(C)c(C)c2c(=O)o1", "target": "Neutrophil elastase (Homo sapiens, UniProt P08246)", "pKi": 7.97}
{"cpd.smiles": "CCSc1nc2sc(C)c(C)c2c(=O)o1", "target": "Neutrophil elastase (Homo sapiens, UniProt P08246)", "pKi": 8.56}
{"cpd.smiles": "CCOc1nc2sc3c(c2c(=O)o1)CCCC3", "target": "Neutrophil elastase (Homo sapiens, UniProt P08246)", "pKi": 8.87}
{"cpd.smiles": "CCCOc1nc2sc3c(c2c(=O)o1)CCCC3", "target": "Neutrophil elastase (Homo sapiens, UniProt P08246)", "pKi": 8.84}

---

Each entry below lists one item and its recorded kOH- value.
protocol.text: Alkaline hydrolysis rate (k-OH)
Format: ADME

{"cpd.smiles": "CC(C)Nc1nc2sc3c(c2c(=O)o1)CCCC3", "units.label": "M⁻¹ s⁻¹", "kOH-": 0.323}
{"cpd.smiles": "CCOc1nc2sc(C)c(C)c2c(=O)o1", "units.label": "M⁻¹ s⁻¹", "kOH-": 2.82}
{"cpd.smiles": "CCN(CC)c1nc2sc(C)c(C)c2c(=O)o1", "units.label": "M⁻¹ s⁻¹", "kOH-": 0.023}
{"cpd.smiles": "Cc1sc2nc(N3CCOCC3)oc(=O)c2c1C", "units.label": "M⁻¹ s⁻¹", "kOH-": 0.085}
{"cpd.smiles": "CCCOc1nc2sc(C)c(C)c2c(=O)o1", "units.label": "M⁻¹ s⁻¹", "kOH-": 2.48}
{"cpd.smiles": "CC(C)COc1nc2sc3c(c2c(=O)o1)CCCC3", "units.label": "M⁻¹ s⁻¹", "kOH-": 1.83}
{"cpd.smiles": "CCOc1nc2scc(C(C)C)c2c(=O)o1", "units.label": "M⁻¹ s⁻¹", "kOH-": 2.98}
